Would you kindly list TGI for each of these compounds?
# System: NCI-H522 lung
# measurement-protocol: NCI tumour cell line growth inhibition, 48 h

Field: example entries. Status: answers known.
Entry under test: O=[N+]([O-])c1ccc(N=Nc2c(O)[nH]c3ccc(Br)cc23)cc1 . Its TGI was > 87.7 µM

Entry under test: COCCCCCC(=O)CP(=O)(OC)OC . Its TGI was > 100 µM

Entry under test: Nc1c(C(=O)Nc2ccccn2)sc2nc3c(cc12)CCCCC3 . Its TGI was > 50 µM

Entry under test: COc1cc2c(cc1OC)[Se]c1cc(OC)c(OC)cc1[Se]2 . Its TGI was > 100 µM

Entry under test: Clc1ccc(C2ON=C(c3ccccc3)N2C23CC4CC(CC(C4)C2)C3)c(Cl)c1 (configuration not stated) . Its TGI was > 10 µM

Hi! Can you tell me TGI for each of these compounds?
1. O=C1CCC(C(=O)O)C2=C1CCCC2 (configuration not stated)
2. Cc1cc(-c2c(Br)cc(C(=O)O)n2C)on1
3. CC(=NCC(=O)O)c1ccccc1
4. O=C1OC(c2ccccc2)=N/C1=C\c1ccc(F)cc1

Output line:
> 100 µM
> 100 µM
> 100 µM
> 100 µM

Hi! Can you tell me TGI for each of these compounds?
1. Cc1nc2ccccc2c(/C=C/c2ccc(Cl)cc2)c1C(=O)/C=C/c1ccc(F)cc1
2. Cc1ccc(C)c(COc2cc(NC(=O)c3ccc4c(c3)OCO4)ccc2N(C)S(C)(=O)=O)c1
3. CC(C)=NNc1ncnc2c1ncn2C1OC(CO)C(O)C1O (configuration not stated)

Output line:
4.04 µM
0.424 µM
3.24 µM
